Cited source for all entries: patent US12297246B2

system: CTLL-2 cells; experiment: IL-15-induced CTLL-2 cell proliferation assay; assay type: cell-based; conditions: fixed IL-15 concentration of 300 μg/mL; colorimetric assay
Where no end group is shown, it is not given here.
parameter: pIC50
# log scale: pIC50 equals minus log10 of the concentration in mol/L

Please fill in: pIC50 reported for KVTAMKCFLL-NH2 [Peptide 1, reference compound] = 3.89
